assay: xn = mol fraction of the nth substance listed, in the solute-free solvent; conditions: 298.15 K; x2 = 0.9
Parameter measured: solubility (g/100 g solution)

# Compound, solubility (g/100 g solution)
records = [
    ("CCOc1ccccc1C(N)=O + CCO + CC#N", 6.29),
    ("COC(=O)C(N)CS.Cl (stereo not given) + CCO + ClCCl", 9.98),
]

P: CCOc1ccccc1C(N)=O + CO + CC#N
Q: Cc1ncc(CO)c(CO)c1O.Cl + O + CC#N
R: Cc1c(Br)c(=O)n(C2CCCC2)c2nc(Cl)ncc12 + CCOC(C)=O + CCO
Give the ascending ranking of the items by reported solubility (g/100 g solution). Lab note: final answer is the ordered label list.
R, P, Q
(R: 1.02, P: 10.1, Q: 18.6)

----------
assay: xn = mol fraction of the nth substance listed, in the solute-free solvent; conditions: 298.15 K; x2 = 0.2
Parameter measured: solubility (g/100 g solution)

# Molecule, solubility (g/100 g solution)
measured = [
    ("CCOc1ccccc1C(N)=O + CO + CC#N", 6.33),
    ("CCOC(=O)OC1=C(c2cc(C)ccc2C)C(=O)NC12CCC(OC)CC2 (stereo not drawn) + CO + O", 0.0253),
    ("CCOc1ccccc1C(N)=O + CC#N + CC(C)O", 5.28),
]

----------
assay: xn = mol fraction of the nth substance listed, in the solute-free solvent; details: 293.15 K; x2 = 0.6
Parameter measured: solubility (g/100 g solution)

# Compound, Parameter measured, Test result
records = [
    ("Cl.N=C(N)NC(=N)N1CCOCC1 + O + CC(C)O", "solubility (g/100 g solution)", 15.4),
]

1: O=C(NC(C(=O)O)c1ccccc1)OCc1ccccc1 (stereo not drawn) + CCO + O
2: CCOc1ccccc1C(N)=O + CC(C)O + CC#N
Just curious, which one has the larger solubility (g/100 g solution) reading, 1 or 2 ? Let me know the label of the one you choose.
1

----------
assay: xn = mol fraction of the nth substance listed, in the solute-free solvent; conditions: 283.15 K; x2 = 0.8
Parameter measured: solubility (g/100 g solution)

The cases that follow already have their solubility (g/100 g solution) on record.
# Compound, Parameter measured, Test result
measured = [
    ("N#CCNC(=O)c1cnccc1C(F)(F)F + CCOC(C)=O + CCO", "solubility (g/100 g solution)", 4.38),
    ("CCOC(=O)OC1=C(c2cc(C)ccc2C)C(=O)NC12CCC(OC)CC2 (stereo not given) + CO + O", "solubility (g/100 g solution)", 4.27),
    ("CCOC(=O)OC1=C(c2cc(C)ccc2C)C(=O)NC12CCC(OC)CC2 (stereo not given) + CC(C)=O + O", "solubility (g/100 g solution)", 10.6),
    ("Cc1c(Br)c(=O)n(C2CCCC2)c2nc(Cl)ncc12 + C1CCOC1 + CCO", "solubility (g/100 g solution)", 3.75),
    ("CCOC(=O)OC1=C(c2cc(C)ccc2C)C(=O)NC12CCC(OC)CC2 (stereo not given) + CC(C)O + O", "solubility (g/100 g solution)", 3.07),
    ("O=C(NC(C(=O)O)c1ccccc1)OCc1ccccc1 (stereo not given) + CCO + O", "solubility (g/100 g solution)", 11.1),
    ("CCOC(=O)OC1=C(c2cc(C)ccc2C)C(=O)NC12CCC(OC)CC2 (stereo not given) + CCO + O", "solubility (g/100 g solution)", 3.95),
    ("Cc1ncc(CO)c(CO)c1O.Cl + O + CCCO", "solubility (g/100 g solution)", 8.36),
]

A: Cc1ncc(CO)c(CO)c1O.Cl + O + CC#N
B: Cc1c(Br)c(=O)n(C2CCCC2)c2nc(Cl)ncc12 + CCOC(C)=O + CCO
Which has the higher solubility (g/100 g solution), A or B ? Mark your answer with the label of the selected entry.
A

Values from the CheMixHub drug solubility set
